Collected solubility at 4 h values appear next to each entry.
Assay: physchem
Type: physicochemical
Settings: organic solvent or mixture, thermodynamic from solid, Solubility in Diisopropyl adipate
Experimental: Assay 5: Solubility Assay in Organic Excipients The purpose of this assay was to quantify the solubility of test compounds in different organic excipients such as diisopropyl adipate, medium chain triglycerides (MCT), propylene glycol, and polyethylene glycol. The assay required 80 μL of 100 mM DMSO test compound solution per desired excipient in addition to 40 μL required to make a test standard. For example, to test a compound in all five […]) of 100 mM DMSO compound stock solution was required. […]

compound_structure	solubility at 4 h
CCS(=O)(=O)N1[C@@H]2CCC[C@H]1C[C@H](N(C)c1nc(COC(C)=O)c(F)c(Nc3cc(C)[nH]n3)n1)C2	> 10000 µg/mL
CCS(=O)(=O)N1[C@@H]2CCC[C@H]1C[C@H](N(C)c1nc(COC(=O)C3CCOCC3)c(F)c(Nc3cc(C)[nH]n3)n1)C2	> 10000 µg/mL
CCC(=O)OCc1nc(N(C)[C@@H]2C[C@H]3CCC[C@@H](C2)N3S(=O)(=O)CC)nc(Nc2cc(C)[nH]n2)c1F	> 10000 µg/mL
CCS(=O)(=O)N1[C@@H]2CCC[C@H]1C[C@H](N(C)c1nc(COC(=O)OC3CCOCC3)c(F)c(Nc3cc(C)[nH]n3)n1)C2	> 10000 µg/mL
CCCC(=O)OCc1nc(N(C)[C@@H]2C[C@H]3CCC[C@@H](C2)N3S(=O)(=O)CC)nc(Nc2cc(C)[nH]n2)c1F	> 10000 µg/mL
CCCCC(=O)OCc1nc(N(C)[C@@H]2C[C@H]3CCC[C@@H](C2)N3S(=O)(=O)CC)nc(Nc2cc(C)[nH]n2)c1F	> 10000 µg/mL

Now look at this one.
Request: Any idea what solubility at 4 h was measured for CCS(=O)(=O)N1[C@@H]2CCC[C@H]1C[C@H](N(C)c1nc(CO)c(F)c(Nc3cc(C)[nH]n3)n1)C2 ?
Result: < 5000 µg/mL

----------
Collected solubility at 4 h values appear next to each entry.
Assay: physchem
Type: physicochemical
Details: pH 7.4, aqueous buffer, thermodynamic from solid

Example cases with answers are listed next.
molecule	reading
CCCC(=O)OCc1nc(N(C)[C@@H]2C[C@H]3CCC[C@@H](C2)N3S(=O)(=O)CC)nc(Nc2cc(C)[nH]n2)c1F [Compound 3]	10 to 50 µM
CCCCC(=O)OCc1nc(N(C)[C@@H]2C[C@H]3CCC[C@@H](C2)N3S(=O)(=O)CC)nc(Nc2cc(C)[nH]n2)c1F [Compound 4]	50 to 100 µM
CCS(=O)(=O)N1[C@@H]2CCC[C@H]1C[C@H](N(C)c1nc(COC(=O)OC(C)C)c(F)c(Nc3cc(C)[nH]n3)n1)C2 [Compound 8]	50 to 100 µM
CCS(=O)(=O)N1[C@@H]2CCC[C@H]1C[C@H](N(C)c1nc(COC(=O)C3CCOCC3)c(F)c(Nc3cc(C)[nH]n3)n1)C2 [Compound 7]	100 to 1000 µM
CCS(=O)(=O)N1[C@@H]2CCC[C@H]1C[C@H](N(C)c1nc(COC(C)=O)c(F)c(Nc3cc(C)[nH]n3)n1)C2 [Compound 1]	10 to 50 µM
CCS(=O)(=O)N1[C@@H]2CCC[C@H]1C[C@H](N(C)c1nc(COC(=O)OC3CCOCC3)c(F)c(Nc3cc(C)[nH]n3)n1)C2 [Compound 9]	100 to 1000 µM
CCS(=O)(=O)N1[C@@H]2CCC[C@H]1C[C@H](N(C)c1nc(COC(=O)OC3CCCCC3)c(F)c(Nc3cc(C)[nH]n3)n1)C2 [Compound 6]	10 to 50 µM
CCS(=O)(=O)N1[C@@H]2CCC[C@H]1C[C@H](N(C)c1nc(CO)c(F)c(Nc3cc(C)[nH]n3)n1)C2 [Compound M]	10 to 50 µM

Request: Any idea what solubility at 4 h was measured for CCCCCCC(=O)OCc1nc(N(C)[C@@H]2C[C@H]3CCC[C@@H](C2)N3S(=O)(=O)CC)nc(Nc2cc(C)[nH]n2)c1F [Compound 5] ?
Result: 10 to 50 µM

Request: Any idea what solubility at 4 h was measured for CCC(=O)OCc1nc(N(C)[C@@H]2C[C@H]3CCC[C@@H](C2)N3S(=O)(=O)CC)nc(Nc2cc(C)[nH]n2)c1F [Compound 2] ?
Result: 10 to 50 µM
